Attribution: ChEMBL document CHEMBL3045304

# Tested on: Lactuca sativa
# testSummary: Inhibition of root length of Lactuca sativa cv. Roman (lettuce) at 0.1 mM or 1 mM after 5 days relative to untreated control
# Type: functional
Activity calls are given as the source filed them. The rule behind the calls is not given here.

compound: C=C1CC[C@H]2C(=C)CC[C@@H](C(=C)CO)[C@H](O)[C@@H]12
studyTarget: Lactuca sativa
inhibition: inactive
--
compound: CC1=CC(=O)C2=C(C)C[C@H](O)[C@H]3[C@H](OC(=O)[C@@H]3C)[C@@H]12 [8ALPHA-HYDROXYACHILLIN]
studyTarget: Lactuca sativa
inhibition: inactive
--
compound: C=C1CC[C@H]2C(=C)CC[C@H]3C(=C)C(=O)O[C@@H]3[C@@H]12 [DEHYDROCOSTUSLACTONE]
studyTarget: Lactuca sativa
inhibition: inactive
--
compound: C=C1[C@@H]2[C@H]3OC(=O)C(=C)[C@@H]3CCC(=C)[C@@H]2C[C@H]1O
studyTarget: Lactuca sativa
inhibition: inactive
--
compound: C=C1CC[C@H]2C(=C)CC[C@@H]3[C@H](OC(=O)[C@]3(O)CO)[C@@H]12
studyTarget: Lactuca sativa
inhibition: inactive

----------
# Test system: Solanum lycopersicum
# testSummary: Stimulation of germination of Solanum lycopersicum cv. Tres Cantos (tomato) at 0.1 mM or 1 mM after 5 days relative to untreated control
# Assay type: functional
Activity calls are given as the source filed them. The calls are words filed in the database; no cut-off is given here.

molecule: C=C1CC[C@H]2[C@H](C)C(=O)O[C@@H]2[C@@]2(O)C(=C)[C@H](O)C[C@@]12O
Activity: inactive

molecule: C=C1C(=O)C[C@H]2C(=C)CC[C@H]3C(=C)C(=O)O[C@@H]3[C@@H]12 [DEHYDROZALUZANIN C]
Activity: >40%

molecule: C=C1CC[C@H]2[C@H](CO)C(=O)O[C@@H]2[C@@]2(O)C(=C)[C@H](O)C[C@@H]12
Activity: inactive

molecule: C=C1CC[C@H]2C(=C)CC[C@H]3C(=C)C(=O)O[C@@H]3[C@@H]12 [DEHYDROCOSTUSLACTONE]
Activity: inactive

molecule: CC(=O)O[C@H]1CC(C)=C2C(=O)C=C(C)[C@@H]2[C@H]2OC(=O)[C@H](C)[C@H]21 [8ALPHA-ACETOXYACHILLIN]
Activity: inactive

molecule: C=C1CC[C@H]2C(=C)CC[C@@H](C(=C)CO)[C@H](O)[C@@H]12
Activity: 20%

molecule: C=C1C(=O)O[C@H]2[C@H]1C[C@@H](O)C(=C)[C@@H]1C[C@@H](O)C(=C)[C@@]12O
Activity: <20%

molecule: C=C1C(=O)O[C@H]2[C@H]1CCC(=C)[C@@H]1C[C@@H](O)C(=C)[C@@]12O [5ALPHA-HYDROXYISOZALUZANIN C]
Activity: inactive
